test: E. coli acrAB mutant growth effects, primary screen, E. coli filamentation inducers, strain DRC39, OD650, 48 h (AID 1179);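 note: screen aims at cell division blockers that make cells filament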; conditions: E. coli DRC39 delta-acrAB growth, higher = more signal, called active from +8 up or from −8 down
Label rule met for high-side z-score (at or above -0.02) and rule not met for low-side z-score (below it).

Please indicate if the recorded z-score for CN1C=C(C(=O)OCCS(C)(=O)=O)C(C(=O)OCCS(C)(=O)=O)=CC(c2ccc(CO)cc2)=CC1c1cccs1 (configuration not stated) meets or exceeds -0.02.
rule not met

Is z-score at least -0.02? Consider C=CCC(OC(C)=O)[C@@H]1[C@@H](N(Cc2cccc3ccccc23)C(=O)Cc2ccc(F)cc2)c2cc(OCCCO)ccc2N1C(=O)c1ccc(-c2ccccc2)cc1 (some centres not stated)
rule met

Does the reported z-score for CN1C(=O)C2C(C1=O)C1C=C(CCCO)C2C(C2CC2)N1Cc1cc2c(cc1Br)OCO2 (configuration not stated) fall at or above the -0.02 mark?
rule not met

Would you say Cc1ccccc1C(O)C1C=CC2C(=O)N(c3ccccc3)C(=O)C2N1Nc1ccc([N+](=O)[O-])cc1 (configuration not stated) shows z-score at minimum -0.02?
rule not met

Say whether COc1cc(C(O)C2C=CC3C(=O)N(Cc4ccccc4)C(=O)C3N2n2cnnc2)cc(OC)c1OC (configuration not stated) shows z-score of -0.02 or more.
rule met

Given the entry `COCCOC(=O)N1C(=O)[C@@]2(c3cc(C#CC4=CCCCC4)ccc31)[C@H](c1ccc(O)cc1)N1[C@H](c3ccccc3)[C@H](c3ccccc3)OC(=O)[C@H]1[C@@H]2C(=O)NC[C@H](O)c1ccccc1` , answer whether its z-score meets or surpasses -0.02.
rule met

====

experiment: S. cerevisiae RM11-1a growth modifiers, primary screen, strain RM11-1a, OD600, basal, 24 h (AID 1177); details: OD600, 24 h, higher = more signal, called active from +8 up or from −8 down;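 note: cultures grown under basal conditions with no added stressor; test concentration not given here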
quantity kind: z-score
Simply state the number, no unit and no words.

Take a look at these entries with their results.
Look up z-score of CC(C)[C@H]1NC(=O)[C@@]23C(=O)N[C@@H](Cc4ccccc4)C2[C@H](C)[C@@]2(C)O[C@H]2C3/C=C/C/C=C\CNC(=O)[C@H](Cc2ccccc2)NC1=O (some centres undefined) and report it.
-0.472

Please give measured z-score of the following entry: `COCCCNC(=O)[C@@]1(Sc2ccc(C)cc2)CC(=O)N(Cc2ccccc2Cl)[C@@H]1c1ccc(CO)cc1I`
-1.07

Name the recorded z-score of the item `CCOC(=O)C1=C[C@@H](c2ccccc2)N(S(=O)(=O)c2ccc(C)cc2)[C@H]1c1ccccc1` in your answer.
0.398

Next compound, please.
Supply z-score value. Item: COc1ccc(C(O)C2C=CC3C(=O)N(c4ccccc4)C(=O)C3N2Nc2ccccc2)cc1 (centres undefined)
-0.0179

====

system: Noggin (protein binding on small-molecule microarray); assay: Noggin binders on small-molecule microarray, primary screen, biochemical, 635/667 nm fluorescence (AID 1095); conditions: 635 nm fluorescence, higher = more signal;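 note: score merges 667 nm feature fluorescence with signal to noise over triplicate slides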
quantity kind: composite z-score
Answer using only a numeral; do not append any unit.

Past entries and their recorded results:
Quote composite z-score with test system Noggin (protein binding on small-molecule microarray) for CN1C(=O)C2C=CC(C(O)c3cc(C(F)(F)F)cc(C(F)(F)F)c3)N(NC(=O)OC(C)(C)C)C2C1=O (stereo not drawn)
0.421

Report value only: composite z-score, Noggin (protein binding on small-molecule microarray), `CCCCC(=C=CC[C@H](O)c1ccc(OCCO)cc1)C[C@H](O)c1cc(Cl)cc(Cl)c1O`
0.563

Given `COCCOC(=O)N1C(=O)[C@@]2(c3cc(C#CC4(O)CCCCCC4)ccc31)[C@H](C(=O)N1CCN(c3ncccn3)CC1)[C@H]1C(=O)O[C@H](c3ccccc3)[C@H](c3ccccc3)N1[C@@H]2c1ccccc1OCCO` , report its composite z-score on Noggin (protein binding on small-molecule microarray).
1.04

Give composite z-score for `CCOC(=O)C1=C[C@@H](C(C)(C)C)N(S(=O)(=O)c2ccc(C)cc2)[C@H]1c1ccc(C)cc1` tested on Noggin (protein binding on small-molecule microarray).
0.552

Provide composite z-score, recorded with Noggin (protein binding on small-molecule microarray), of `[N-]=[N+]=Nc1ccccc1C[C@]1(C(=O)O)N=C(c2ccc(OCCCO)cc2)O[C@H]1c1ccccc1N=[N+]=[N-]`
-0.359

New cases:
Return reported composite z-score for target or system Noggin (protein binding on small-molecule microarray), item `C=CCOC(=O)[C@H]1[C@@H]2C(=O)O[C@@H](c3ccccc3)[C@@H](c3ccccc3)N2[C@@H](c2ccc(OCCOC(=O)[C@H]3C[C@H]4C(=O)N[C@@H](CCCCNC(C)=O)C(=O)N4[C@H]3c3cccc(OCCO)c3)cc2)[C@]12C(=O)Nc1ccc(I)cc12` .
1.87

Tell me its composite z-score on Noggin (protein binding on small-molecule microarray): `C=C(COC)/C(=C/C[C@H](OC(C)=O)c1cccc(OCCO)c1)c1cnc2ccccc2c1`
1.64

====

tested on: Fibrinogen (Alexa647-labelled); assay: fibrinogen binders on compound microarrays, profiling panel, artefact control for SMM control-protein annotation, biochemical, small-molecule microarray, 635/667 nm fluorescence (AID 1131); conditions: fibrinogen-A647 binding fluorescence, higher = more signal;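 note: z-score merges 667 nm fluorescence with per-spot signal-to-noise over triplicate slides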
Output yes for composite z-score not less than 0.07; output no otherwise.

Hello, I need to know if `COCCOC(=O)N1C(=O)[C@@]2(c3cc(C#CCC(C(=O)OC)C(=O)OC)ccc31)[C@H](C(=O)NC[C@H](O)c1ccccc1)[C@H]1C(=O)O[C@H](c3ccccc3)[C@H](c3ccccc3)N1[C@@H]2c1ccc(O)cc1` has measured composite z-score not below 0.07. Thanks!
no

Form field: composite z-score at least 0.07? Entry: `O=C(NCCN1CCOCC1)[C@@H]1c2ccccc2C(=O)N(Cc2ccccc2)[C@H]1c1ccc(CO)cc1`
yes

Confirm if composite z-score reported for the molecule `CC(C)C[C@@H]1NC(=O)[C@@H]2C[C@H](C(=O)NCCCCCC[N+](C)(C)C)[C@H](c3cccc(OCCO)c3)N2C1=O` is 0.07 or above.
no

Assess whether reported composite z-score for CC(C)N1CC=CC23O[C@@H]4/C=C\CCCOC(=O)C4[C@H]2C(=O)N(CCCCCCO)[C@@H]3C1=O (some centres not stated) sits at 0.07 or higher.
no

Reported composite z-score reaches at least 0.07 for `COCCOC(=O)N1C(=O)[C@@]2(c3cc(C#CCNC(N)=O)ccc31)[C@H](c1ccc(OCCO)cc1)N1[C@H](c3ccccc3)[C@H](c3ccccc3)OC(=O)[C@H]1[C@@H]2C(=O)NC[C@H](O)c1ccccc1` ?
yes

More entries:
Is composite z-score for `CCCNC(=O)[C@@]1(Sc2ccc(C)cc2)CC(=O)N(C(C)C)[C@@H]1c1ccc(CO)cc1I` at or above 0.07?
no

====

experiment: small-molecule microarray binders of probe aCHRDL2, primary screen, biochemical, biotinylated probe, 635/667 nm fluorescence (AID 1100); settings: higher = more signal
Rule: composite z-score of 0.09 or more gives y; anything lower gives n.

Could you verify whether the entry `O=C(NCCN1CCOCC1)[C@@H]1c2ccccc2C(=O)N(Cc2ccccc2)[C@H]1c1ccc(CO)cc1` shows composite z-score of no less than 0.09?
y

====

Below, each entry is listed alongside its reported z-score.
test: CREB reporter modulators without forskolin, primary screen, cell-based, PC12, CRE-LacZ reporter, unstimulated (AID 1145); details: no forskolin, luminescence, 4.5 h, higher = more signal, called active from +8 up or from −8 down
Lab note: record just the number, no unit beside it.

State, in one line, measured z-score of COc1cc(C(O)C2C=CC3C(=O)N(Cc4ccccc4)C(=O)C3N2n2cnnc2)cc(OC)c1OC (centres undefined)
0.636

Return z-score (reported value) for this compound: CCCCCN1CC=CC23O[C@@H]4C=CCOC(=O)[C@@H]4[C@H]2C(=O)N(CCO)[C@@H]3C1=O (some centres undefined)
-0.0818

Supply measured z-score of `COc1ccc(NC(=O)O[C@H]2[C@@H]3OC(=O)[C@H](Cc4cccc(Br)c4)C/C=C/C[C@@H](Cc4cccc(Br)c4)C(=O)O[C@H]3[C@@H](OC)O[C@@H]2CO)cc1` in your reply.
0.753

Kindly consider the entry below.
Please report z-score for the following compound: COc1cc(NN2C(C(O)c3ccccc3)C=CC3C(=O)N(C)C(=O)C32)cc(OC)c1OC (centres undefined)
0.0603

====

tested on: Inhibin beta A chain (activin A); experiment: INHBA (activin A) binders on microarrays, primary screen, biochemical, small-molecule microarray, 635 nm fluorescence scan (AID 1107); settings: small-molecule microarray binding, higher = more signal;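 note: mouse activin A protein probed at 4.33 µg/mL on printed slides; score merges bound-protein fluorescence near 667 nm with spot signal-to-noise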
Decision: composite z-score compared against 0.5; not below it gives 1, below it gives -1.

The following molecules have reported results that may help.
Is composite z-score for `O=C1N(CCS(=O)(=O)c2ccccc2)Cc2ccccc2[C@@H]2OC(c3ccc(OCCCO)cc3)=N[C@]12CCS(=O)(=O)c1ccccc1` at or above 0.5?
1

Could you please find out whether `C=C[C@@H](C)[C@H](O)c1ccc(OCCO)cc1` has composite z-score that meets 0.5 or exceeds it?
-1

For this molecule, is measured composite z-score 0.5 or higher? `CCCNC(=O)[C@@]1(C)c2ccccc2C(=O)N(Cc2ccccc2)[C@H]1c1ccc(CO)cc1`
-1

---
Hi, just wondering whether COc1cc(NN2C(C(O)C3CCCCC3)C=CC3C(=O)N(c4ccccc4)C(=O)C32)cc(OC)c1OC (stereo not drawn) shows composite z-score of 0.5 or higher.
1

Confirm if composite z-score reported for the molecule `COc1ccc([Si](C)(C)[C@H]2[C@H](CC(=O)N3Cc4ccccc4C[C@H]3CO)O[C@@]3(C(=O)N(Cc4ccc(N5C(=O)c6cccc7cccc5c67)cc4)c4ccccc43)[C@@H]2C)cc1` is 0.5 or above.
-1
